Value source: PubChem BioAssay AID2060884

# System: NCI-H929 complex spheroids, viability % test/control
# assayName: Anticancer human tumor NCI-H929 cell line growth inhibition [RAS];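 also: compound exposure lasted seven days before viability was read; 100% = DMSO vehicle control viability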
# conditionParameters: second compound 0.3 µM; first compound 1 µM; active compounds read low
viability, T/C by entry:
Dear colleague, please return just the value in %, with no unit written.

Look over these answered cases.
[[record]]
compound = "CC1(O)CCCC1n1c(=O)c(C(F)F)cc2cnc(NC3CCN(S(C)(=O)=O)CC3)nc21 (configuration not stated) + CCn1c(-c2cc(N3CCN(C)CC3)cnc2C(C)OC)c2c3cc(ccc31)-c1csc(n1)CC(NC(=O)C1CC1C)C(=O)N1CCCC(N1)C(=O)OCC(C)(C)C2"
tgt = "NCI-H929 complex spheroids, viability % test/control"
assaymetric = "viability, T/C"
valuereported = 1.68

[[record]]
compound = "CC(Nc1ccc2c(c1)OCCn1cc(N3C(=O)OCC3C(F)F)nc1-2)C(N)=O (configuration not stated) + CCn1c(-c2cc(N3CCN(C)CC3)cnc2C(C)OC)c2c3cc(ccc31)-c1csc(n1)CC(NC(=O)C1CC1C)C(=O)N1CCCC(N1)C(=O)OCC(C)(C)C2"
tgt = "NCI-H929 complex spheroids, viability % test/control"
assaymetric = "viability, T/C"
valuereported = 0.29

[[record]]
compound = "NC1c2ccccc2OC12CCN(c1cnc3c(N4CCCc5ncccc54)n[nH]c3n1)CC2 (configuration not stated) + CCn1c(-c2cccnc2C(C)OC)c2c3cc(ccc31)N1CCOC(CC(NC(=O)C(C(C)C)N(C)C(=O)C3(F)CCN(C(=O)C#CC(C)(C)N(C)C)CC3)C(=O)N3CCCC(N3)C(=O)OCC(C)(C)C2)C1"
tgt = "NCI-H929 complex spheroids, viability % test/control"
assaymetric = "viability, T/C"
valuereported = 93.2

[[record]]
compound = "CCN1CCN(Cc2ccc(Nc3ncc(F)c(-c4cc(F)c5nc(C)n(C(C)C)c5c4)n3)nc2)CC1 + CCn1c(-c2cc(N3CCN(C)CC3)cnc2C(C)OC)c2c3cc(ccc31)-c1csc(n1)CC(NC(=O)C1CC1C)C(=O)N1CCCC(N1)C(=O)OCC(C)(C)C2"
tgt = "NCI-H929 complex spheroids, viability % test/control"
assaymetric = "viability, T/C"
valuereported = 0.89

[[record]]
compound = "CC(C)NCC(C(=O)N1CCN(c2ncnc3c2C(C)CC3O)CC1)c1ccc(Cl)cc1 (configuration not stated) + CCn1c(-c2cccnc2C(C)OC)c2c3cc(ccc31)N1CCOC(CC(NC(=O)C(C(C)C)N(C)C(=O)C3(F)CCN(C(=O)C#CC(C)(C)N(C)C)CC3)C(=O)N3CCCC(N3)C(=O)OCC(C)(C)C2)C1"
tgt = "NCI-H929 complex spheroids, viability % test/control"
assaymetric = "viability, T/C"
valuereported = 49.6


# compound C=CC(=O)Nc1cc(Nc2nccc(-c3cn(C)c4ccccc34)n2)c(OC)cc1N(C)CCN(C)C + CCn1c(-c2cccnc2C(C)OC)c2c3cc(ccc31)N1CCOC(CC(NC(=O)C(C(C)C)N(C)C(=O)C3(F)CCN(C(=O)C#CC(C)(C)N(C)C)CC3)C(=O)N3CCCC(N3)C(=O)OCC(C)(C)C2)C1 ; its viability, T/C = 101

Lab book: viability, T/C of CCC(CC)c1cc(NC2CCC(N)C2)n2nccc2n1 (configuration not stated) + CCn1c(-c2cccnc2C(C)OC)c2c3cc(ccc31)N1CCOC(CC(NC(=O)C(C(C)C)N(C)C(=O)C3(F)CCN(C(=O)C#CC(C)(C)N(C)C)CC3)C(=O)N3CCCC(N3)C(=O)OCC(C)(C)C2)C1 noted as 55.1
